ASSAYED_SYSTEM: Voltage-gated potassium channel subunit beta-2 (Rattus norvegicus)
TEST_DESCRIPTION: enhancers of rat Kvbeta2 NADPH turnover – biochemical, NADPH fluorescence, primary screen (AID 623);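 also: fluorescence intensity change per second fitted from 20 to 320 s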
STUDY_CONDITIONS: Recombinant KvBeta, NADPH fluorescence decrease slope, 10 min; at 10 µM; stronger effect = lower value
Where a SMILES comes first, the peptide text is derived from it. The star is where a group is joined. Boc = CC(C)(C)OC(=O)*
PROPERTY_NAME: NADPH fluorescence slope

MOLECULE	NUMERIC_RESULT
CCc1oc2ccccc2c1C(=O)c1cc(Br)c(O)c(Br)c1	3.1e-06
CC(C)(C)c1cc(C(=O)O)nn1-c1ccccc1	-3.8e-05
Cc1ccc(S(=O)(=O)n2nc(OC(=O)c3ccco3)cc2N)cc1	-9.4e-05
CC(C)(C)OC(=O)N1CCCC1C(=O)N1CCCC1C(=O)N1CCCC1C(=O)O (stereo not drawn) (Boc-Pro-Pro-Pro-OH; configuration not given here)	-4.7e-05
Cc1cc(NC(=O)CSc2ccc(Cl)cc2)no1	-0.000128

###

TEST_DESCRIPTION: Primary imaging screen for DUSP6 inhibitors that restore phospho-Erk in transfected HeLa cells, chemical complementation (AID 609)
STUDY_CONDITIONS: HeLa MKP-3 transfected, phospho-Erk imaging KS statistic; measured here: nuclear c-Myc green intensity z-score; at 10 µM; cells stimulated with TPA for 15 min
PROPERTY_NAME: z-score

> print(dat)
                                   compound  property.name  numeric.result
1              CCCc1nnc(SCc2ccc(OCC)cc2)n1N        z-score            1.35
2  O=C(c1ccc(F)cc1)C1CCN(CCn2c(=O)[nH]c3ccccc3c2=O)CC1        z-score           0.365
3  COc1cccc2c1C(=O)c1c(O)c3c(c(O)c1C2=O)C[C@@](O)(C(C)=O)C[C@@H]3O[C@H]1C[C@H](N)[C@H](O)[C@H](C)O1        z-score            10.2
4  O=C(CCN1CCCC1Cc1ccccc1)c1ccc2c(c1)OCCO2 (centres undefined)        z-score            -1.2
5  CC(C)[N+]1(C)[C@@H]2CC[C@H]1CC(OC(=O)C(CO)c1ccccc1)C2 (some centres undefined)        z-score         -0.0729
6  CC(=O)O[C@]1(C(C)=O)CC[C@H]2[C@@H]3C=C(Cl)C4=CC(=O)CC[C@]4(C)[C@H]3CC[C@@]21C        z-score          -0.174
7  CCN1CCN(C(=O)N[C@@H](C(=O)N[C@@H]2C(=O)N3[C@@H]2SC(C)(C)[C@@H]3C(=O)O)c2ccccc2)C(=O)C1=O        z-score          -0.264
8  COc1ccc([C@@H]2Sc3ccccc3N(CCN(C)C)C(=O)[C@@H]2OC(C)=O)cc1        z-score           -1.47
9                C=C(Br)CN1CCN(CC(=C)Br)CC1        z-score          -0.834

###

ASSAYED_SYSTEM: Voltage-gated potassium channel subunit beta-2 (Rattus norvegicus) (UniProt P62483)
Sequence (P62483 whole entry, looked up): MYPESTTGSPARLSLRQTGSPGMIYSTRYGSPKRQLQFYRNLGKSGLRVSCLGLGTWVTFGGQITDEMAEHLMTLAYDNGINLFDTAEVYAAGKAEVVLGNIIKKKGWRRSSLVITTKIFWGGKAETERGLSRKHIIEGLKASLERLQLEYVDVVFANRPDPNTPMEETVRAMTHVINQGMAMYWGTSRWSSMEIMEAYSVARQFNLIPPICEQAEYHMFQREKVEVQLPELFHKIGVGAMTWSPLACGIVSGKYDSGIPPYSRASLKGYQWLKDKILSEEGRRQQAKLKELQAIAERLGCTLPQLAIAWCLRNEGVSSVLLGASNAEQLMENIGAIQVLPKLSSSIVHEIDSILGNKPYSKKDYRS
TEST_DESCRIPTION: inhibitors of rat Kvbeta2 reductase activity – biochemical, NADPH fluorescence, primary screen (AID 622);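 also: slope of raw intensity against log time taken from 70 to 1610 s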
STUDY_CONDITIONS: recombinant KvBeta, 4-cyanobenzaldehyde reduction, at 10 µM, stronger effect = higher value
Active and inactive are the calls of the source.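 How the source made its calls: active means fluorescence slope higher than the sample average by over 3 SD (cut at about -0.22 in these data, passing the limit was not always enough); inactive means the rest.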

MOLECULE	fluorescence slope
CN(C)S(=O)(=O)n1cnc(-c2ccccc2)c1-c1ccccc1	-0.497 (inactive)
COc1cccc(C(=O)Nc2cnc(NC(=O)c3ccco3)cc2C)c1	-0.567 (inactive)
CS(=O)(=O)Nc1ccc(C(=O)NCc2ccco2)cc1	-0.571 (inactive)
Cn1c(=O)[nH]c(=O)c2[nH]c(CN3CCN(C(=O)c4ccco4)CC3)nc21	-0.54 (inactive)
CCC(=O)N1CCc2cc(OC)c(OC)cc2C1COc1ccc(C(=O)OC)cc1 (centres undefined)	-0.543 (inactive)
CCOC(=O)c1ccc(NC(=O)N2CCN(CCc3ccccc3)CC2)cc1	-0.475 (inactive)
COc1cc(-c2nnc(SCC(=O)c3cc(C)n(CC4CCCO4)c3C)o2)cc(OC)c1OC (centres undefined)	-0.245 (inactive)
CC(C)(C)OC(=O)N1CCOCCOCCN(C(=O)OC(C)(C)C)CCOCCOCC1	-0.579 (inactive)
CC(C)C[C@H]1C(=O)N2CCC[C@H]2[C@]2(O)O[C@](NC(=O)[C@@H]3C=C4c5cccc6[nH]c(Br)c(c56)CC4N(C)C3)(C(C)C)C(=O)N12 (some centres undefined)	-0.523 (inactive)
